Where do these numbers come from? They come from patent US10577362B2.

- Test system: Huh7 (hepatocellular carcinoma) cell line
- procedure details: CellTiter-Glo luminescent cell viability assay, Huh7
- Assay type: cell-based, human
- test settings: Homo sapiens, Huh-7; Huh7, compound at 10 μM, 72 h
Response field label: string, one of Condition met (viability at 10 µM strictly below 0.5%) or Condition not met.

Worked examples, 4 compounds total:
>>> print(df.to_string())
                                   compound                cat
0  CC(C)(C)NC1CCN(c2c(C#N)c(NCc3ccc(Cl)cc3)nc3ccccc23)CC1 [Compound 352CN]  Condition not met
1  CC(C)(C)NC1CCN(c2c(C#N)c(Nc3ccc(F)cc3)nc3ccccc23)CC1 [Compound 3260CN]  Condition not met
2  CC(C)(C)NC1CCN(c2c(C#N)c(NCc3ccc(C(F)(F)F)cc3)nc3ccccc23)CC1 [Compound 3292CN]      Condition met
3  Cc1ccc(OC2CCN(c3c(C#N)c(NCc4ccc(Cl)cc4)nc4ccccc34)CC2)cc1 [Compound 2944CN]  Condition not met

Confirm or reject: viability at 10 µM of N#Cc1c(NCc2ccc(Cl)cc2)nc2ccccc2c1N1CCC(NC2CCOCC2)CC1 [Compound 3180CN] lies strictly below 0.5%
Condition met

---

- System: PANC-1 (prancreatic carcinoma) cell line
- procedure details: CellTiter-Glo luminescent cell viability assay, PANC-1
- Type: cell-based
- test settings: Homo sapiens; PANC-1, 10 μM, 72 h, % of signal of diluent-treated cultures
Response field label: string, one of criterion met (viability at 10 µM strictly below 80%) or criterion not met.

In [3]: df
Out[3]:
                                   compound                              study_system                cat
0  CN1CCN(C2CCCN(c3c(C#N)c(NCc4ccc(Cl)cc4)nc4ccccc34)C2)CC1 (stereo not drawn) [Compound 3168CN]  PANC-1 (prancreatic carcinoma) cell line      criterion met
1  CC(C)(C)OC(=O)NC1CCN(c2c(C#N)c(NCc3ccc(Cl)cc3)nc3ccccc23)CC1 [Compound 182CN]  PANC-1 (prancreatic carcinoma) cell line  criterion not met
2  N#Cc1c(NCc2ccc(Cl)cc2)nc2ccccc2c1N1CCC(N2CCCC2)C1 (stereo not drawn) [Compound 148CN]  PANC-1 (prancreatic carcinoma) cell line  criterion not met

Confirm or reject: viability at 10 µM of CC(C)(C)NC1CCN(c2c(C#N)c(NCc3cccnc3)nc3ccccc23)CC1 [Compound 3304CN] lies strictly below 80%
criterion not met

Confirm or reject: viability at 10 µM of COc1ccc(Nc2nc3ccccc3c(N3CCC(NC(C)(C)C)CC3)c2C#N)cc1 [Compound 3252CN] lies strictly below 80%
criterion met

---

Recorded EC50 by entry
- Tested on: A375 (malignant melanoma) cell line
- procedure details: CellTiter-Glo luminescent cell viability assay, A375
- Type: cell-based, human
- test settings: Homo sapiens, A-375; A375 cell line; 72 h incubation; CellTiter-Glo; read-out: EC50, growth inhibition of A375

Examples from the recorded data:
>>> df
                                   compound  value_observed
0  CN1CCC(NC2CCN(c3c(C#N)c(NCc4ccc(Cl)cc4)nc4ccccc34)CC2)CC1 [Compound 3182CN]     0.5 to 5 µM
1  CC(C)(C)NC1CCN(c2c(C#N)c(Nc3ccc(F)cc3)nc3ccccc23)CC1 [Compound 3260CN]     0.5 to 5 µM

Moving on to another compound below.
Output measured EC50 for this item: N#Cc1c(NCc2ccc(Cl)cc2)nc2ccccc2c1N1CCCC(NC2CCCC2)C1 (stereo not drawn) [Compound 162CN]
0.5 to 5 µM

---

- Test system: HCT-116 (colorectal carcinoma) cell line
- procedure details: CellTiter-Glo luminescent cell viability assay, HCT-116
- Format: cell-based, human
- test settings: Homo sapiens; HCT-116, compound at 10 μM, 72 h
Response field label: string, one of Satisfied (viability at 10 µM strictly below 70%) or Not satisfied.

Worked examples, 4 compounds total:
>>> df
                                   compound            cat
0  CCN(CC)C1CCN(c2c(C#N)c(NCc3ccc(Cl)cc3)nc3ccccc23)CC1 [Compound 184CN]      Satisfied
1  N#Cc1c(NCc2ccc(Cl)cc2)nc2ccccc2c1N1CCC(N2CCOCC2)C1 (centres unmarked) [Compound 150CN]  Not satisfied
2  Cc1c(Nc2cccc(Nc3nccc(C(F)(F)F)n3)c2)nc2ccccc2c1N1CCC(NC(C)(C)C)CC1 [Compound 540Me]      Satisfied
3  Cn1ncnc1Nc1nc2ccccc2c(N2CCC(NC(C)(C)C)CC2)c1C#N [Compound 3270CN]      Satisfied

We now examine a further compound.
Confirm or reject: viability at 10 µM of CC(C)(C)NC1CCN(c2c(C#N)c(NCc3ccncc3)nc3ccccc23)CC1 [Compound 3306CN] lies strictly below 70%
Not satisfied

---

Recorded viability at 4 µM by entry
- Test system: Huh7 (hepatocellular carcinoma) cell line
- procedure details: CellTiter-Glo luminescent cell viability assay, Huh7
- Type: cell-based, human
- test settings: Homo sapiens, Huh-7; Huh7, compound at 4 μM, 72 h
Output spec: scalar in %, unitless text.

>>> print(df.to_string())
                                   molecule                              study_system  value_observed
0  CC(C)(C)NC1CCN(c2c(C#N)c(Nc3cccc(C(F)(F)F)c3)nc3ccccc23)CC1 [Compound 3256CN]  Huh7 (hepatocellular carcinoma) cell line            78.3

Output measured viability at 4 µM for this item: N#Cc1c(NCc2ccc(Cl)cc2)nc2ccccc2c1N1CCCC(Oc2ccc(F)cc2)C1 (stereo not shown) [Compound 3238CN]
97.7

Output measured viability at 4 µM for this item: N#Cc1c(NCc2ccc(Cl)cc2)nc2ccccc2c1N1CCCC(N)C1 (stereo not shown) [Compound 3156CN]
83

Output measured viability at 4 µM for this item: CCN(CC)C1CCCN(c2c(C#N)c(NCc3ccc(Cl)cc3)nc3ccccc23)C1 (stereo not shown) [Compound 160CN]
89.5

Output measured viability at 4 µM for this item: Cc1nccnc1OC1CCN(c2c(C#N)c(NCc3ccc(Cl)cc3)nc3ccccc23)C1 (stereo not shown) [Compound 3362CN]
66.7

Output measured viability at 4 µM for this item: N#Cc1c(NCc2ccc(Cl)cc2)nc2ccccc2c1N1CCC(N)CC1 [Compound 3170CN]
79.4

Output measured viability at 4 µM for this item: CN1CCN(C2CCN(c3c(C#N)c(NCc4ccc(Cl)cc4)nc4ccccc34)CC2)CC1 [Compound 3188CN]
85.2

---

- Tested on: PANC-1 (prancreatic carcinoma) cell line
- procedure details: CellTiter-Glo luminescent cell viability assay, PANC-1
- Assay type: cell-based
- test settings: Homo sapiens; PANC-1, 10 μM, 72 h, % of signal of diluent-treated cultures
Recorded viability at 10 µM by entry
Output spec: scalar in %, unitless text.

In [3]: df
Out[3]:
                                   compound  value_observed
0  N#Cc1c(NCc2ccc(Cl)cc2)nc2ccccc2c1N1CCCC(N2CCCC2)C1 (centres unmarked) [Compound 176CN]            70.6
1  CC(C)(C)NC1CCN(c2c(C#N)c(NCc3ccccn3)nc3ccccc23)CC1 [Compound 3308CN]            99.1
2  CC(C)(C)NC1CCN(c2c(C#N)c(Nc3ccc(F)cc3)nc3ccccc23)CC1 [Compound 3260CN]            39.1
3  N#Cc1c(NCc2ccc(Cl)cc2)nc2ccccc2c1N1CCC(N)CC1 [Compound 3170CN]             0.6

Moving on to another compound below.
Output measured viability at 10 µM for this item: CNC1CCN(c2c(C#N)c(NCc3ccc(Cl)cc3)nc3ccccc23)CC1 [Compound 3172CN]
0.5

---

Recorded viability at 10 µM by entry
- Tested on: A375 (malignant melanoma) cell line
- procedure details: CellTiter-Glo luminescent cell viability assay, A375
- Format: cell-based, human
- test settings: Homo sapiens, A-375; A375, compound at 10 μM, 72 h
Output spec: scalar in %, unitless text.

Examples from the recorded data:
>>> df
                                   compound        readout_kind  unit_string  value_observed
0  CN(C)C1CCN(c2c(C#N)c(NCc3ccc(Cl)cc3)nc3ccccc23)CC1 [Compound 3184CN]  viability at 10 µM            %             0.5
1  CC(C)(C)NC1CCN(c2c(C#N)c(NCc3ccncc3)nc3ccccc23)CC1 [Compound 3306CN]  viability at 10 µM            %            77.4
2  COc1ccc(CNc2nc3ccccc3c(N3CCC(NC(C)(C)C)CC3)c2C#N)cc1 [Compound 3290CN]  viability at 10 µM            %             0.8

Moving on to another compound below.
Output measured viability at 10 µM for this item: CC(C)(C)NC1CCN(c2c(C#N)c(Nc3cccc(F)c3)nc3ccccc23)CC1 [Compound 3262CN]
0.6
